Reference for the values: paper PMC4501059

- procedureDetails: Single dose pharmacokinetics, mouse
- Assay type: in vivo, CD-1 mouse
- studyConditions: plasma; CD-1 mouse (female), PO 10 mg/kg
measuredProperty: Cmax (nM)
Write down the numeric answer in nM and omit the unit.

Query :: Assign Cmax to the following record: C[C@@H]1CN2c3c(cc4c(N5C(=O)OC[C@@H]5C)noc4c3F)CC3(C(=O)NC(=O)NC3=O)[C@H]2[C@H](C)O1 [ETX0914]
Result :: 1700

---

- procedureDetails: 28 day oral toxicology study, dog
- studyConditions: both, beagle, dog, plasma, po, 500 mg/kg/day
measuredProperty: Cmax (µg/mL)
Write down the numeric answer in µg/mL and omit the unit.

Query :: Assign Cmax to the following record: `C[C@@H]1CN2c3c(cc4c(N5C(=O)OC[C@@H]5C)noc4c3F)CC3(C(=O)NC(=O)NC3=O)[C@H]2[C@H](C)O1`
Result :: 220
